Values from patent US8569344B2

# experimentalTarget: human α1G T-type channels (Homo sapiens, UniProt O43497)
# Construct: expressed in transfected cells; host or cells: HEK 293
# Sequence (O43497 whole entry): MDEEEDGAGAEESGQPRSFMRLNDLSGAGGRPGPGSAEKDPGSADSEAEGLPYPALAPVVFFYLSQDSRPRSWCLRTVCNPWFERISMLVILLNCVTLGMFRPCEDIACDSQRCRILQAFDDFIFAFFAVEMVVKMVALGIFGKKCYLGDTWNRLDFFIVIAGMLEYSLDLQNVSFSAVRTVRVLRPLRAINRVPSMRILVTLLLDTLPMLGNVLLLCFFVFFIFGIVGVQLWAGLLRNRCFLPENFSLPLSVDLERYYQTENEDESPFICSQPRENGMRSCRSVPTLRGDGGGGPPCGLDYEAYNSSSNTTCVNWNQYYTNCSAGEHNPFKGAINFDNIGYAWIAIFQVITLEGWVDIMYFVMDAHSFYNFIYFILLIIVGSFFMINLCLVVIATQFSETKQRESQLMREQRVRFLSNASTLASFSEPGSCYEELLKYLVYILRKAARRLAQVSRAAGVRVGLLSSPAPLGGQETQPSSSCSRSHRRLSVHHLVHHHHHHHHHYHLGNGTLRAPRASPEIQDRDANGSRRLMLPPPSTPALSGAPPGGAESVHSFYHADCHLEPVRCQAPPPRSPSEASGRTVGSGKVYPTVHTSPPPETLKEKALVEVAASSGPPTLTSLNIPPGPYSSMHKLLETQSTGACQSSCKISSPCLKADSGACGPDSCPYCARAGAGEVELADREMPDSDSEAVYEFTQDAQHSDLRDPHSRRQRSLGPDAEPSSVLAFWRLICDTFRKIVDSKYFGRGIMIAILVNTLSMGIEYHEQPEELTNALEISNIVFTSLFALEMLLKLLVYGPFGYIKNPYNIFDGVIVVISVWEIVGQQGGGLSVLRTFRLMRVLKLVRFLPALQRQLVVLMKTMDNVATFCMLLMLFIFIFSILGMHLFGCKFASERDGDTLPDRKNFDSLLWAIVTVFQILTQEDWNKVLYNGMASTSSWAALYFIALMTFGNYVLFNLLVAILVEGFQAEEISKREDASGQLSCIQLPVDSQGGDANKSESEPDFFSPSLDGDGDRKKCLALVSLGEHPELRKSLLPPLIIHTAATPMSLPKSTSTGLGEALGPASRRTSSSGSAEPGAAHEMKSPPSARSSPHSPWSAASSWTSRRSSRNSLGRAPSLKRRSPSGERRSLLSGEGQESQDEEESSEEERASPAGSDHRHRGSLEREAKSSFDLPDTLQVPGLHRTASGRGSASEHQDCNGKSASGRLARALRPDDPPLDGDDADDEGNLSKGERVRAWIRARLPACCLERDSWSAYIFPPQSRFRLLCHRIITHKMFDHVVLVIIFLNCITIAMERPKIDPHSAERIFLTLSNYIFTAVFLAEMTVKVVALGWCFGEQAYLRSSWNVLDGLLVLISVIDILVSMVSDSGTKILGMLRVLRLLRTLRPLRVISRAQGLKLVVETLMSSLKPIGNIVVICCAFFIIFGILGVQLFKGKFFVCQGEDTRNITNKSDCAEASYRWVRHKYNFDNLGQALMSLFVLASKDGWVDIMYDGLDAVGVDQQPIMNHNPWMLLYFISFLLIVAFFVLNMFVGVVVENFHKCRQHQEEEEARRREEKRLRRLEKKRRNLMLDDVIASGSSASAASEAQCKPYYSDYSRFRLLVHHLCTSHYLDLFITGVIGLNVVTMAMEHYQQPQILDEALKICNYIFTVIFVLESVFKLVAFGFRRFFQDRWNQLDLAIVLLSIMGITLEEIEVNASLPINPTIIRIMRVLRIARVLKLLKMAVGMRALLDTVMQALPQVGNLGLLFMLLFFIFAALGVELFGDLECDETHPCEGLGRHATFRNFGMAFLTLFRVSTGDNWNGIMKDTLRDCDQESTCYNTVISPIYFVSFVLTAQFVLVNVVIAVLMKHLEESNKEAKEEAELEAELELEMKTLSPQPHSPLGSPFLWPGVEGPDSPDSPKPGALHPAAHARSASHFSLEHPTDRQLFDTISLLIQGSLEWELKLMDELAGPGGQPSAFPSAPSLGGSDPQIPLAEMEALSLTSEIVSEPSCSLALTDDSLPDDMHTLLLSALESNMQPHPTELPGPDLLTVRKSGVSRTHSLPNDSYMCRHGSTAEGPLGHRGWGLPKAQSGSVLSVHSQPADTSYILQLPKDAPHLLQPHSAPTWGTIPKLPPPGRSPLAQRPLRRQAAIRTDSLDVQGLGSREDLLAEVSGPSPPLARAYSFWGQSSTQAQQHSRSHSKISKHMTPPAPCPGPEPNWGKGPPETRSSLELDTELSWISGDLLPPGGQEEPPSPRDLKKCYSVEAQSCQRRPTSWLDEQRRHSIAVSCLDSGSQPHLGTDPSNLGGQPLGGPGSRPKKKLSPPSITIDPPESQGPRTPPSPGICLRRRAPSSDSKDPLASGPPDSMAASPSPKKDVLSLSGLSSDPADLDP
# procedureText: T-type calcium channel block, whole cell patch clamp in HEK cells (α1G)
# Format: cell-based
# testConditions: HEK cells, patch clamp, mainly non-inactivated protocol; values above 10 μM shown as 10 μM, below 0.30 μM shown as 0.30 μM; read-out: T-type Calcium Channel Block α1G IC50
IC50 vs 600 nM: less than gives 1; not less than gives 0.

Incoming: Consider `CCCCCNCC(=O)N1CCC(CNC(=O)c2cc(F)cc(C(F)(F)F)c2)CC1` . Does its IC50 lie strictly below 600 nM?
Outgoing: 1

Incoming: Consider `COc1cc(F)cc(C(=O)NCC2CCN(CCNC(=O)C3CCCC3)CC2)c1` . Does its IC50 lie strictly below 600 nM?
Outgoing: 0

Incoming: Consider `CC(C)(C#N)NC(=O)CN1CCC(CNC(=O)c2cc(C(F)(F)F)cc(C(F)(F)F)c2)CC1` . Does its IC50 lie strictly below 600 nM?
Outgoing: 1

Incoming: Consider `O=C(NCC1CCN(CC(=O)N2CC[C@H](C(F)(F)F)C2)CC1)c1cc(C(F)(F)F)cc(C(F)(F)F)c1` . Does its IC50 lie strictly below 600 nM?
Outgoing: 1

Incoming: Consider `O=C(NCC1CCN(CCNC(=O)C2CCCC2)CC1)c1cccc(OC(F)(F)F)c1` . Does its IC50 lie strictly below 600 nM?
Outgoing: 0

Incoming: Consider `C[C@@H]1CCCCN1CC(=O)N1CCC(CNC(=O)c2cc(F)cc(C(F)(F)F)c2)CC1` . Does its IC50 lie strictly below 600 nM?
Outgoing: 0

Incoming: Consider `COc1cc(OC)cc(C(=O)NCC2CCN(CCNS(=O)(=O)C(C)(C)C)CC2)c1` . Does its IC50 lie strictly below 600 nM?
Outgoing: 1

Incoming: Consider `CC(C)COC(=O)NC1(CN2CCC(CNC(=O)c3cc(C(F)(F)F)cc(C(F)(F)F)c3)CC2)CCCC1` . Does its IC50 lie strictly below 600 nM?
Outgoing: 1

Incoming: Consider `CN(CC1CCN(CCNC(=O)C(C)(C)C)CC1)C(=O)c1cc(F)cc(C(F)(F)F)c1` . Does its IC50 lie strictly below 600 nM?
Outgoing: 0

Incoming: Consider CC(C)(C)C(O)CN1CCC(CC(=O)Nc2nc3ccccc3[nH]2)CC1 (stereo not shown) . Does its IC50 lie strictly below 600 nM?
Outgoing: 0

Incoming: Consider `COc1cc(OC)cc(C(=O)NCC2CCN(CCNC(=O)C(C)(C)C(F)(F)F)CC2)c1` . Does its IC50 lie strictly below 600 nM?
Outgoing: 1

Incoming: Consider `CC(C)(C)OC(=O)NCCN1CCC(CNC(=O)c2ccc(Oc3ccccc3)cc2)CC1` . Does its IC50 lie strictly below 600 nM?
Outgoing: 0
